FYI, the data here is from ChEMBL document CHEMBL5154644.

Kindly supply the reported log10(CLH) values for the records listed here.
- measurement description: Hepatic clearance in Sprague-Dawley rat by LC-MS/MS analysis
- Format: ADME
- test parameters: in vivo
Annotation: log10 of CLH, mL/min/kg basis.

Give the value of log10(CLH) reported for the following: "C[C@@H](C1CC1)N1Cc2cc(-c3ccn4nc(N)c(C(=O)N[C@H]5CC[C@@](C)(O)CC5)c4n3)cc(OC(F)(F)F)c2C1=O"
1.48

Consider the compound "Cc1cc(-c2ccn3nc(N)c(C(=O)N[C@H]4CCOC4)c3n2)cc2c1C(=O)N([C@@H](C)C1CC1)C2" and give its recorded log10(CLH).
2.11

Look up and report measured log10(CLH) for this entry: "Cc1cc(-c2ccn3nc(N)c(C(=O)Nc4cnn(C)c4)c3n2)cc2c1C(=O)N([C@@H](C)C1CC1)C2"
1.64

Please supply the value of reported log10(CLH) for the item "Cc1cc(-c2ccn3nc(N)c(C(=O)N[C@H]4CC[C@H](O)CC4)c3n2)cc2c1C(=O)N([C@@H](C)C1CC1)C2"
1.70

Specify measured log10(CLH) for "Cc1cc(-c2ccn3nc(N)c(C(=O)NC4CCC4)c3n2)cc2c1C(=O)N([C@@H](C)C1CC1)C2" .
1.88

Output measured log10(CLH) for this item: "C[C@@H](C1CC1)N1Cc2cc(-c3ccn4nc(N)c(C(=O)NC5CC5)c4n3)cc(S(=O)(=O)C3CC3)c2C1=O"
1.62

Using the record for "Cc1cc(-c2ccn3nc(N)c(C(=O)NC4CC4)c3n2)cc2c1C(=O)N([C@@H](C)C1CC1)C2" , state its measured log10(CLH).
0.83

Give reported log10(CLH) value for "C[C@@H](C1CC1)N1Cc2cc(-c3ccn4nc(N)c(C(=O)NC5CC5)c4n3)cc(S(C)(=O)=O)c2C1=O"
1.95

State its log10(CLH): "Cc1cc(-c2ccn3nc(N)c(C(=O)N[C@H]4C[C@H](O)C4)c3n2)cc2c1C(=O)N([C@@H](C)C1CC1)C2"
1.60

Annotate the compound "Cc1cc(-c2ccn3nc(N)c(C(=O)N[C@H](C)CO)c3n2)cc2c1C(=O)N([C@@H](C)C1CC1)C2" with its measured log10(CLH).
1.18

====

- Species: Homo sapiens
- measurement description: Selectivity ratio of IC50 for inhibition of PI3Kdelta (unknown origin) to IC50 for inhibition of PI3Kgamma (unknown origin)
Tag: condition met if measured Ratio IC50 is not below 90, condition not met if it is.

Item "Cc1cc(-c2ccn3nc(N)c(C(=O)N[C@@H](CO)C4CC4)c3n2)cc2c1C(=O)N([C@@H](C)C1CC1)C2" with Ratio IC50 of 90 or above?
condition met

Does the molecule "Cc1cc(-c2ccn3nc(N)c(C(=O)N[C@H]4CC[C@H](C(=O)O)CC4)c3n2)cc2c1C(=O)N([C@@H](C)C1CC1)C2" have recorded Ratio IC50 that is 90 or more?
condition not met

Could you please find out whether "CNS(=O)(=O)c1cc(-c2ccn3nc(N)c(C(=O)N[C@@H](CO)C4CC4)c3n2)cc2c1C(=O)N([C@@H](C)C(F)(F)F)C2" has Ratio IC50 that meets 90 or exceeds it?
condition not met

Is the recorded value of Ratio IC50 equal to or greater than 90 for this molecule? "C[C@@H](C1CC1)N1Cc2cc(-c3ccn4nc(N)c(C(=O)NC5CC5)c4n3)cc(C(F)(F)F)c2C1=O"
condition met

Is the recorded value of Ratio IC50 equal to or greater than 90 for this molecule? "Cc1cc(-c2ccn3nc(N)c(C(=O)N[C@H]4CC[C@H](N)CC4)c3n2)cc2c1C(=O)N([C@@H](C)C1CC1)C2"
condition met

Given the entry "Cc1cc(-c2ccn3nc(N)c(C(=O)NC4CC4)c3n2)cc2c1C(=O)N([C@@H](C1CC1)C(F)(F)F)C2" , answer whether its Ratio IC50 meets or surpasses 90.
condition met

====

- assayed target: Cytochrome P450 2C8 (Homo sapiens, UniProt P10632)
- Sequence (P10632 whole entry): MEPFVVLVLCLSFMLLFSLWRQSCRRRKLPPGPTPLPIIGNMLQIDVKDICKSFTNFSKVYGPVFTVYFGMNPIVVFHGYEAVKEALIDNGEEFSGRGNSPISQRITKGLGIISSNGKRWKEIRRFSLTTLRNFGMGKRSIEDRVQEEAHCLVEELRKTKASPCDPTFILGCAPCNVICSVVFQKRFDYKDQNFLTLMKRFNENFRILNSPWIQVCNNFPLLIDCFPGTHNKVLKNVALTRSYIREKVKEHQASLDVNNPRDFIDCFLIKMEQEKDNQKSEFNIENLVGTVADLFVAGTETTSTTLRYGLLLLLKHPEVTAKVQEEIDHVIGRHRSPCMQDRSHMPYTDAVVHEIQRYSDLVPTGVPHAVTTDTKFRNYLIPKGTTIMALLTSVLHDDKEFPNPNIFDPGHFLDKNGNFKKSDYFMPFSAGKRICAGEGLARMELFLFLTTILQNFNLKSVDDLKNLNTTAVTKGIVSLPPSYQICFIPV
- measurement description: Time dependent inhibition of CYP2C8 in human liver microsomes at 40 uM measured after 5 to 20 mins in presence of NADPH by LC/MS/MS analysis
reported property: IC50

Give IC50 only, for "C[C@@H](C1CC1)N1Cc2cc(-c3ccn4nc(N)c(C(=O)N[C@H]5CC[C@@](C)(O)CC5)c4n3)cc(OC(F)F)c2C1=O" , using Cytochrome P450 2C8 (Homo sapiens, UniProt P10632) data.
> 20 µM

====

Assignment: determine reported clearance for the given molecules.
- measurement description: Clearance in Sprague-Dawley rat at 1 mg/kg, iv measured up to 8 hrs by LC-MS/MS analysis
- Type: ADME, organism-based
- test parameters: in vivo

Recall and state the measured clearance for "C[C@@H](C1CC1)N1Cc2cc(-c3ccn4nc(N)c(C(=O)N[C@H]5CC[C@@](C)(O)CC5)c4n3)cc(OC(F)(F)F)c2C1=O" .
20.8 mL/min/kg

Provide measured clearance value, entry: "C[C@@H](C1CC1)N1Cc2cc(-c3ccn4nc(N)c(C(=O)N[C@H]5CC[C@@](C)(O)CC5)c4n3)cc(OC(F)F)c2C1=O"
27.5 mL/min/kg

====

- Species on record: Homo sapiens
- measurement description: Selectivity ratio of IC50 for inhibition of PI3Kalpha (unknown origin) to IC50 for inhibition of PI3Kgamma (unknown origin)
Kindly state Ratio IC50 for each of the entries shown.
Would you mind answering with just the numeric figure?

Supply reported Ratio IC50 belonging to this compound: "C[C@@H](C1CC1)N1Cc2cc(-c3ccn4nc(N)c(C(=O)N[C@H]5CC[C@](C)(O)CC5)c4n3)cc(NS(C)(=O)=O)c2C1=O"
362

Consider the compound "C[C@@H](C1CC1)N1Cc2cc(-c3ccn4nc(N)c(C(=O)NC5CC5)c4n3)cc(C3CC3)c2C1=O" . State its measured Ratio IC50.
122

Find the measured Ratio IC50 of "C[C@@H](C1CC1)N1Cc2cc(-c3ccn4nc(N)c(C(=O)N[C@@H](CO)C5CC5)c4n3)cc(OC(F)(F)F)c2C1=O" and report it.
733

Item "C[C@@H](C1CC1)N1Cc2cc(-c3ccn4nc(N)c(C(=O)N[C@@H](CO)C5CC5)c4n3)cc(NS(C)(=O)=O)c2C1=O" : provide Ratio IC50
1470

Name the recorded Ratio IC50 of the compound listed here: "CNS(=O)(=O)c1cc(-c2ccn3nc(N)c(C(=O)N[C@@H](CO)C4CC4)c3n2)cc2c1C(=O)N([C@@H](C)C(F)(F)F)C2"
274

Input "Cc1cc(-c2ccn3nc(N)c(C(=O)NC4CCC4)c3n2)cc2c1C(=O)N([C@@H](C)C1CC1)C2" , output reported Ratio IC50.
1580

Give a short answer stating reported Ratio IC50 for "COc1cc(-c2ccn3nc(N)c(C(=O)NC4CC4)c3n2)cc2c1C(=O)N([C@@H](C)C1CC1)C2" .
74

Answer with the recorded Ratio IC50 for the compound listed here: "C[C@@H](C1CC1)N1Cc2cc(-c3ccn4nc(N)c(C(=O)N[C@H]5CC[C@](O)(C(F)(F)F)CC5)c4n3)cc(NS(C)(=O)=O)c2C1=O"
1880

Hello, please tell me recorded Ratio IC50 for this one: "Cc1cc(-c2ccn3nc(N)c(C(=O)NC4CC4)c3n2)cc2c1C(=O)N([C@@H](C)C1CC1)C2"
904

Tell me its Ratio IC50 given "CNS(=O)(=O)c1cc(-c2ccn3nc(N)c(C(=O)N[C@H]4CC[C@](C)(O)CC4)c3n2)cc2c1C(=O)N([C@@H](C)C(F)(F)F)C2" as the entry.
53

Identify Ratio IC50 associated with the compound "Cc1cc(-c2ccn3nc(N)c(C(=O)N[C@H](C)CO)c3n2)cc2c1C(=O)N([C@@H](C)C1CC1)C2"
205

Provide only the value of recorded Ratio IC50 for "Cc1cc(-c2ccn3nc(N)c(C(=O)N[C@H]4CCOC4)c3n2)cc2c1C(=O)N([C@@H](C)C1CC1)C2"
580

Give a short answer stating reported Ratio IC50 for "CCN1Cc2cc(-c3ccn4nc(N)c(C(=O)NC5CC5)c4n3)cc(C)c2C1=O" .
21

Tell me Ratio IC50 reported for "Cc1cc(-c2ccn3nc(N)c(C(=O)NC4CC4)c3n2)cc2c1C(=O)N(CC1CC1)C2"
42

====

- assayed target: Phosphatidylinositol 4,5-bisphosphate 3-kinase catalytic subunit alpha isoform (Homo sapiens)
- Sequence (P42336 whole entry, canonical isoform): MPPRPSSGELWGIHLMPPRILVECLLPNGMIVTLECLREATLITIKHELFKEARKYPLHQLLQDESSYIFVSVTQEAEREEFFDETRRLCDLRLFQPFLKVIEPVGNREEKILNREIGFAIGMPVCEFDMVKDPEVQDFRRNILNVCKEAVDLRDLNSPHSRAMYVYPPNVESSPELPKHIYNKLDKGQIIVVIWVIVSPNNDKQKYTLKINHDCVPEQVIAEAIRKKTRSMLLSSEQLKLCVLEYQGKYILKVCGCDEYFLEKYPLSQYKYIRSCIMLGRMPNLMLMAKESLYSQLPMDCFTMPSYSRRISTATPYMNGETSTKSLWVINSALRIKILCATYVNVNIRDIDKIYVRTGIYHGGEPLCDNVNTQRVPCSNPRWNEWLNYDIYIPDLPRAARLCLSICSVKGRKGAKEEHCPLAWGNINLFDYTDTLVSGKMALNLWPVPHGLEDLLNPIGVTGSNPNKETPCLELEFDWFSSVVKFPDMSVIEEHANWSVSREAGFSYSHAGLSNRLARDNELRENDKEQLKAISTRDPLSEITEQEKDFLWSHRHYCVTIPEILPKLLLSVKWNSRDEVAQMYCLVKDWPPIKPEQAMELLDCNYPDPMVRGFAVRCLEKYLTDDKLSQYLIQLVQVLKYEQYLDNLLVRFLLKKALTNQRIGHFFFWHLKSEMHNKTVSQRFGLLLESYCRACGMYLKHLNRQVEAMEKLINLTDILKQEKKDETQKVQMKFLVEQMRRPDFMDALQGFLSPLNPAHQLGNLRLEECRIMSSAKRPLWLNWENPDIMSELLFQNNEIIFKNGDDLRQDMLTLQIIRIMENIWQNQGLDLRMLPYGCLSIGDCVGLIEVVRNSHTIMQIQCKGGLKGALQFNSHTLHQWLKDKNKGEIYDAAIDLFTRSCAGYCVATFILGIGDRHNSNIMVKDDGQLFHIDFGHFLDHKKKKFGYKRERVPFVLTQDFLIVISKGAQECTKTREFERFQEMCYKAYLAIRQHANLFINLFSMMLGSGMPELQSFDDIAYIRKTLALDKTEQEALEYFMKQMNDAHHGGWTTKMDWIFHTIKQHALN
- measurement description: Inhibition of PI3Kalpha (unknown origin) using PIP2 as substrate preincubated for 1 hr followed by substrate addition and measured after 60 mins in presence of ATP by ADP-glo assay
reported property: log10 of IC50 (log10 of the value in µM)
The figures below represent log10 of IC50, where IC50 is stated in µM.

Input "C[C@H](N1Cc2cc(-c3ccn4nc(N)c(C(=O)N[C@@H](CO)C5CC5)c4n3)cc(NS(C)(=O)=O)c2C1=O)C(F)(F)F" , output reported log10 of IC50.
0.21

Read off the recorded log10 of IC50 for "Cc1cc(-c2ccn3nc(N)c(C(=O)N[C@H]4CCOC4)c3n2)cc2c1C(=O)N([C@@H](C)C1CC1)C2"
-0.01

Return the recorded log10 of IC50 value; entry: "C[C@@H](C1CC1)N1Cc2cc(-c3ccn4nc(N)c(C(=O)N[C@H]5CC[C@](O)(C(F)(F)F)CC5)c4n3)cc(NS(C)(=O)=O)c2C1=O"
0.61

Tell me measured log10 of IC50 for "C[C@@H](C1CC1)N1Cc2cc(-c3ccn4nc(N)c(C(=O)N[C@H]5CC[C@](C)(O)CC5)c4n3)cc(NS(C)(=O)=O)c2C1=O" please.
-0.49

Determine its reported log10 of IC50: "C[C@H](N1Cc2cc(-c3ccn4nc(N)c(C(=O)NC5CC5)c4n3)cc(NS(C)(=O)=O)c2C1=O)C(F)(F)F"
-1.01

Look up log10 of IC50 of "C[C@H](N1Cc2cc(-c3ccn4nc(N)c(C(=O)N[C@H]5CC[C@@](C)(O)CC5)c4n3)cc(NS(C)(=O)=O)c2C1=O)C(F)(F)F" and report it.
-0.71

Give the reported log10 of IC50 for this compound. "C[C@H](N1Cc2cc(-c3ccn4nc(N)c(C(=O)N[C@@H](CO)C5CC5)c4n3)cc(OC(F)F)c2C1=O)C(F)(F)F"
0.12

Complete the entry with log10 of IC50 for "C[C@@H](C1CC1)N1Cc2cc(-c3ccn4nc(N)c(C(=O)NC5CC5)c4n3)cc(OC(F)F)c2C1=O"
-0.22

For the compound "CNS(=O)(=O)c1cc(-c2ccn3nc(N)c(C(=O)NC4CC4)c3n2)cc2c1C(=O)N([C@@H](C)C1CC1)C2" , report log10 of IC50.
-0.28

Give the reported value of log10 of IC50 for this record: "CC(C)c1cc(-c2ccn3nc(N)c(C(=O)NC4CC4)c3n2)cc2c1C(=O)N([C@@H](C)C1CC1)C2"
0.00

Recall and state the measured log10 of IC50 for "CNS(=O)(=O)c1cc(-c2ccn3nc(N)c(C(=O)N[C@@H](CO)C4CC4)c3n2)cc2c1C(=O)N([C@@H](C)C(F)(F)F)C2" .
-0.44

Indicate its recorded log10 of IC50; the compound in question is "CCN1Cc2cc(-c3ccn4nc(N)c(C(=O)NC5CC5)c4n3)cc(C)c2C1=O"
-0.93

Give log10 of IC50 for "C[C@@H](C1CC1)N1Cc2cc(-c3ccn4nc(N)c(C(=O)N[C@@H](CO)C5CC5)c4n3)cc(NS(C)(=O)=O)c2C1=O"
0.08
